Test system: SB.mhdgc-1
EXPERIMENT_DESCRIPTION: area under the dose-response curve of % viability (trapezoidal, 11 doses) (% viability x log10 concentration); higher = less cytotoxic
RUN_CONDITIONS: SB.mhdgc-1 (hereditary c.1380delA CDH1 gastric cancer)
READOUT_NAME: area under the dose-response curve
The answer should be a number; do not append a unit.

input: Consider the compound shown here: CO[C@H]1/C=C/O[C@@]2(C)Oc3c(C)c(O)c4c(c3C2=O)C2=NC3(CCN(CC(C)C)CC3)NC2=C(NC(=O)/C(C)=C\C=C\[C@H](C)[C@H](O)[C@@H](C)[C@@H](O)[C@@H](C)[C@H](OC(C)=O)[C@@H]1C)C4=O [Rifabutin] (top concentration 46.0829 µM) What is its recorded area under the dose-response curve?
output: 494

input: Next record, please: COc1ccc2c(c1OC)C(=O)O[C@H]2[C@H]1c2c(cc3c(c2OC)OCO3)CCN1C [Noscapine] (top concentration 46.0829 µM)
output: 418

input: Queued: OC(=O)CNC(=O)\C1=C(/O)C2=CC=CC=C2N(CC3=CC=CC=C3)C1=O [IOX2] (top concentration 46.0829 µM)
output: 475

----------
Task for the reader: assign each of the following compounds its reported viability.
Tested on: SB.mhdgc-1
EXPERIMENT_DESCRIPTION: viability at highest tested concentration (MAXR) relative to DMSO; higher = less cytotoxic
RUN_CONDITIONS: SB.mhdgc-1 (hereditary c.1380delA CDH1 gastric cancer)
Note: unit % is implicit; provide only the numeric part.

input: For the record C#Cc1cccc(Nc2ncnc3cc(OCCOC)c(OCCO)cc23)c1 [OSI-420] (top concentration 46.0829 µM) , what value of viability is listed for SB.mhdgc-1?
output: 44.9

input: Quick one: C[C@]1(CO)CN(c2cc(C(=O)Nc3ccc4c(c3)-c3c(c(C(N)=O)nn3-c3ccc(F)cc3)CC4)c(Cl)cn2)C[C@@]1(C)CO [PF-184] (top concentration 46.0829 µM)
output: 30.3

input: And what about the compound OC(=O)CNC(=O)\C1=C(/O)C2=CC=CC=C2N(CC3=CC=CC=C3)C1=O [IOX2] (top concentration 46.0829 µM) ?
output: 88.1

----------
Tested on: SB.msgc-1
EXPERIMENT_DESCRIPTION: viability at highest tested concentration (MAXR) relative to DMSO; higher = less cytotoxic
RUN_CONDITIONS: SB.msgc-1 (sporadic gastric cancer)
Entries whose viability is below 30% take T; entries at or above 30% take F.

input: Please indicate whether the reported viability of CN(C)C(=O)[C@H](O)[C@H](Cc1ccccc1)NC(=O)c1cc2cc(Cl)ccc2[nH]1 (top concentration 46.0829 µM) is strictly below 30%.
output: F

input: Please do the same for CN(CCOc1ccc(CC2SC(=O)NC2=O)cc1)c1ccccn1 (stereo unspecified) [Rosiglitazone] (top concentration 46.0829 µM) as well.
output: F

input: One more molecule: CC(C)N(CCCNC(=O)Nc1ccc(C(C)(C)C)cc1)C[C@H]1O[C@@H](n2cc(Br)c3c(N)ncnc32)[C@H](O)[C@@H]1O [SGC0946] (top concentration 46.0829 µM)
output: F

input: Then CC/C(=C(/c1ccc(O)cc1)c1ccc(OCCNC)cc1)c1ccccc1 [Endoxifen] (top concentration 46.0829 µM) ?
output: F

input: Please give the result for O=C(CCCCCCC(=O)Nc1cccnc1)NO [Pyroxamide] (top concentration 46.0829 µM) too.
output: T

input: And N[C@@H](Cc1cc(I)c(Oc2cc(I)c(O)c(I)c2)c(I)c1)C(=O)O [L-Thyroxine] (top concentration 46.0829 µM) ?
output: F

----------
Test system: SB.msgc-1
EXPERIMENT_DESCRIPTION: viability at highest tested concentration (MAXR) relative to DMSO; higher = less cytotoxic
RUN_CONDITIONS: SB.msgc-1 (sporadic gastric cancer)
Structures can show the parent of a compound that is named as a salt.
READOUT_NAME: viability (%)
Report the figure in % without appending any unit label.

input: // viability lookup, key: O=C1Nc2cc(Br)ccc2/C1=C1/Nc2ccccc2/C1=N\O [BIO] (top concentration 46.0829 µM)
output: 15.3

input: Queued: CC1=CC=C2N=C(NC(=O)CS\C3=N\C4=C(\SCC4)C(=O)N3C5=CC=CC=C5)SC2=C1 [IWP-2] (top concentration 46.0829 µM)
output: 39.1

input: # repeat for c1ccc(CNc2nc(NCc3ccccc3)c3ccccc3n2)cc1 (top concentration 46.0829 µM)
output: 19

input: Quick one: CCOC(=O)c1c(/C(C#N)=C\N)c2ccc(Cl)c(Cl)c2n1C [KH-CB19] (top concentration 46.0829 µM)
output: 96

input: Consider next the compound N[S+](=O)([O-])c1cc2c(cc1Cl)NCN[S+]2(=O)[O-] [Hydrochlorothiazide] (top concentration 46.0829 µM) in the same way.
output: 110

input: Please do the same for COC[C@H]1OC(=O)C2=COC3=C2[C@@]1(C)\C4=C(C5CCC(=O)[C@@]5(C)C[C@H]4OC(C)=O)/C3=O (some centres not stated) [Wortmannin] (top concentration 46.0829 µM) as well.
output: 43.5

input: Then this compound: O=C(O)/C=C/c1ccc(Cn2ccnc2)cc1 [Ozagrel hydrochloride] (top concentration 46.0829 µM)
output: 113

input: // next record O=C(O)CCCc1ccc(N(CCCl)CCCl)cc1 [Chlorambucil] (top concentration 46.0829 µM)
output: 79.2

input: Now the same for OC[C@H]1O[C@@H](OCCc2ccc(O)cc2)[C@H](O)[C@@H](O)[C@@H]1O [Salidroside] (top concentration 46.0829 µM)
output: 95.9

input: Next compound up: NC[C@H]1O[C@H](O[C@H]2[C@H](O)[C@@H](O[C@H]3O[C@H](CO)[C@@H](O)[C@H](N)[C@H]3O)[C@H](N)C[C@@H]2N)[C@H](N)C[C@@H]1O [Tobramycin] (top concentration 46.0829 µM)
output: 112

input: And the next one, CCc1cc2c(cc1N1CCC(N3CCOCC3)CC1)C(C)(C)c1[nH]c3cc(C#N)ccc3c1C2=O (top concentration 46.0829 µM) ?
output: 61.4

input: Next entry: CCc1cnn2c(NCc3ccc[n+]([O-])c3)cc(N3CCCC[C@H]3CCO)nc12 [Dinaciclib] (top concentration 46.0829 µM)
output: 42.2

----------
System: SB.mhdgc-1
EXPERIMENT_DESCRIPTION: viability at highest tested concentration (MAXR) relative to DMSO; higher = less cytotoxic
RUN_CONDITIONS: SB.mhdgc-1 (hereditary c.1380delA CDH1 gastric cancer)
READOUT_NAME: viability (%)
Lab book: enter the figure in %, no units written.

input: Field request: viability | item: CN[C@@H](C)C(=O)N[C@H]1CCCC[C@H]2CC[C@@H](C(=O)N[C@@H](c3ccccc3)c3cn(CCCCc4ccc(CCCCn5cc([C@@H](NC(=O)[C@@H]6CC[C@@H]7CCCC[C@H](NC(=O)[C@H](C)NC)C(=O)N76)c6ccccc6)nn5)cc4)nn3)N2C1=O [SM-164] (top concentration 46.0829 µM)
output: 2.4

input: Also CNC(=O)c1ccc(N2C(=S)N(c3ccc(C#N)c(C(F)(F)F)c3)C(=O)C2(C)C)cc1F [MDV-3100] (top concentration 46.0829 µM) , if possible.
output: 70.4

----------
Tested on: SB.mhdgc-1
EXPERIMENT_DESCRIPTION: area under the dose-response curve of % viability (trapezoidal, 11 doses) (% viability x log10 concentration); higher = less cytotoxic
RUN_CONDITIONS: SB.mhdgc-1 (hereditary c.1380delA CDH1 gastric cancer)
Counter-ions that a name gives are not always drawn.
READOUT_NAME: area under the dose-response curve
Response field accepts a number only; no unit should be typed.

input: Any idea what its area under the dose-response curve is? The compound is C[C@H]1CN(C[C@@H](C)N1)C2=C(F)C3=C(C(=C2F)N)C(=O)\C(=C/N3C4CC4)C(O)=O [Sparfloxacin] (top concentration 23.0415 µM)
output: 556

input: Likewise for Cc1[nH]c(/C=C2\C(=O)Nc3ccccc32)c(C)c1CCC(=O)O [Orantinib] (top concentration 46.0829 µM) ?
output: 388

input: Repeat with Cc1ccc2nc(NCCN)c3ncc(C)n3c2c1 (top concentration 46.0829 µM)
output: 366

input: Okay, and ClC1=CC=C(CCCOC/2=N/NC(=O)C(=C2NCC3=CN=CC=C3)/Br)C=C1 [Parogrelil] (top concentration 46.0829 µM) ?
output: 504

input: Now the compound NC\1=N\C(=O)N(\C=C1F)[C@H]2C[C@H](O)[C@@H](CO)O2 (top concentration 46.0829 µM)
output: 229

input: # repeat for CC1C(=O)OC2C(O)C34C5CC(C(C)(C)C)C36C(OC(=O)C6O)OC4(C(=O)O5)C12O (configuration not stated) [Ginkgolide B] (top concentration 46.0829 µM)
output: 525

input: Similarly, CC(C)C[C@@H](N)[C@H](O)C(=O)N[C@H](C(=O)N[C@H](C(=O)N[C@@H](CC(=O)O)C(=O)O)C(C)C)C(C)C [Amastatin] (top concentration 46.0829 µM) ?
output: 543

input: How about this compound: COc1ccc(Cc2nccc3cc(OC)c(OC)cc23)cc1OC [Papaverine hydrochloride] (top concentration 46.0829 µM)
output: 575

input: Another compound to look at: CCC(=O)OC1CCC2C3CCC/4=C/C(=O)CC[C@@]4(C)C3CC[C@]12C (some centres not stated) [Testosterone propionate] (top concentration 46.0829 µM)
output: 540

input: Please do the same for CC\1=C(C(=O)N(\C=C1)C2=CC=C(C=C2)C3=NC=CO3)/C4=CC5=CN=C(N)N=C5C=C4 [AMG-25] (top concentration 46.0829 µM) as well.
output: 571

input: Now the same for COc1cc(O)c2c(c1)C(=O)c1cc(C)cc(O)c1C2=O [Parietin] (top concentration 23.0415 µM)
output: 551

input: Another compound to check: COc1cc(O)c2c(c1)C1OC1C[C@H](O)[C@H](O)C(=O)/C=C\C[C@H](C)OC2=O (some centres not stated) [Hypothemycin] (top concentration 46.0829 µM)
output: 394
